The measured values listed here are drawn from patent US12344610B2.

Examples of compounds with documented EC50 follow.
System: Trypanosoma brucei Lister 427 VSG221 with APOL1 G1 recombinant protein
Method summary: APOL1 G1 trypanosome cell rescue assay (Example B5)
Type: cell-based
Setup conditions: Trypanosoma brucei, 20 h, read-out: APOL1 G1 Trypanosome Rescue EC50, Trypanosoma brucei Lister 427 VSG221 with APOL1 G1 recombinant protein, 20 hours, CellTiter-Glo; geometric mean of at least 2 assay runs; † = single assay run
Attribute measured: EC50 (nM)

INSERT INTO measurements (compound, comparison_symbol, val) VALUES
  ('O=C1CCc2cc(OCCN3CCC4(CC3)C(=O)Nc3ccc(Cl)cc34)cnc2N1[C@H]1C[C@@H](CO)C1 (single isomer, unassigned)', '=', 81.1),
  ('C[C@]1(O)C[C@@H](N2C(=O)Cc3cc(OCCN4CCC5(CC4)C(=O)Nc4ccc(C(F)F)cc45)cnc32)C1', '=', 116),
  ('CC(c1c(F)cc(OCCN2CCC3(CC2)C(=O)Nc2ccc(C#N)cc23)cc1F)S(C)(=O)=O (single isomer, unassigned) [Compound 138]', '=', 585),
  ('Cn1c(=O)[nH]c2cc(OCCN3CCC4(CC3)C(=O)Nc3ccc(Cl)cc34)ccc21', '=', 561),
  ('CS(=O)(=O)C1(c2ccc(OCCN3CCC4(CC3)C(=O)N(CC(F)(F)F)c3ccc(C#N)cc34)cc2)COC1', '=', 2080),
  ('O=C(c1ccc(OCCN2CCC3(CC2)C(=O)Nc2ccc(Cl)cc23)cc1F)N1CCS(=O)(=O)CC1', '=', 157),
  ('C[C@]1(O)C[C@H](N2C(=O)CCc3cc(OCCN4CCC5(CC4)C(=O)Nc4ccc(Cl)cc45)cnc32)C1 (single isomer, unassigned)', '=', 79.7),
  ('C[C@@H](CN1CCC2(CC1)C(=O)Nc1ccccc12)Oc1ccc(S(C)(=O)=O)cc1 (single isomer, unassigned)', '>', 4000),
  ('CC(C)(C#N)c1ccc(OCCN2CCC3(CC2)C(=O)Nc2ccc(C#N)cc23)cc1', '=', 142),
  ('CS(=O)(=O)C1(c2ccc(OCCN3CCC4(CC3)C(=O)Nc3ccc(Cl)cc34)cc2)CC1', '=', 50.5),
  ('O=C1CCc2cc(OCCN3CCC4(CC3)C(=O)Nc3ccc(Cl)cc34)cnc2N1[C@H]1C[C@](O)(C2CC2)C1 (single isomer, unassigned)', '=', 52.2),
  ('O=C(c1ccc(OCCN2CCC3(CC2)C(=O)Nc2ccc(Cl)cc23)cc1F)N1CC2(C1)CS(=O)(=O)C2', '=', 48.8),
  ('CC(C)N1C(=O)CCc2cc(OCCN3CCC4(CC3)C(=O)Nc3ccc(Cl)cc34)ccc21', '=', 98.4);

---

Target or system: APOL1 G2 (Homo sapiens, UniProt O14791, DEL388-389)
Construct: expressed in transfected cells; host or cells: HEK293 T-REx clonal line stably expressing GCaMP6f (HEK T-REx/GCaMP6f/APOL1 G2 K6.3), doxycycline induced
Sequence (O14791 with tags, fused parts or gaps DEL388-389): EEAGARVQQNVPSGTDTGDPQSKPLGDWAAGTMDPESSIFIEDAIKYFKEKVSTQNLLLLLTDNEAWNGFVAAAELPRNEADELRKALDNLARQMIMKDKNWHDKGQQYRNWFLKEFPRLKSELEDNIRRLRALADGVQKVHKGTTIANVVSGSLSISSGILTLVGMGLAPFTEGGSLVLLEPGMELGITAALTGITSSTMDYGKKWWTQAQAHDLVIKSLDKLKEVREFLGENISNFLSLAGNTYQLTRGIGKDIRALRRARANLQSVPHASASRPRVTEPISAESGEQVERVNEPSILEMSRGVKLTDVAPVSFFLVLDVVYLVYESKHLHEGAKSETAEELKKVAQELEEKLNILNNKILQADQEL
Method summary: APOL1-mediated calcium transport (calcium influx) assay, HEK T-REx/GCaMP6f/APOL1 G2 K6.3 cells, FLIPR TETRA
Type: cell-based
Setup conditions: prevention of calcium influx; geometric mean of at least 2 assay runs; † = average of a technical replicate from a single assay run
AC50 by entry:
Attribute measured: AC50 (nM)

INSERT INTO results (compound, target_or_system, comparison_symbol, val) VALUES
  ('CS(=O)(=O)c1c(F)cc(OCCN2CCC3(CC2)C(=O)Nc2ccccc23)cc1F [Compound 42]', 'APOL1 G2 (Homo sapiens, UniProt O14791, DEL388-389)', '=', 316),
  ('CS(=O)(=O)c1ccc(OCCN2CCC3(CC2)C(=O)Nc2ccc(C#N)cc23)cc1C(F)F [Compound 100]', 'APOL1 G2 (Homo sapiens, UniProt O14791, DEL388-389)', '=', 503),
  ('C[C@]1(O)C[C@@H](n2nnc3cc(OCCN4CCC5(CC4)C(=O)Nc4ccc(Cl)cc45)cc(C(F)(F)F)c32)C1 [Compound 434]', 'APOL1 G2 (Homo sapiens, UniProt O14791, DEL388-389)', '=', 1270),
  ('CS(=O)(=O)c1ccc(OCCN2CCC3(CC2)C(=O)Nc2ccc(Cl)cc23)cc1OC(F)F [Compound 163]', 'APOL1 G2 (Homo sapiens, UniProt O14791, DEL388-389)', '=', 528),
  ('CC(C)(CO)c1ncc(OCCN2CCC3(CC2)C(=O)Nc2ccc(Cl)cc23)cn1 [Compound 334]', 'APOL1 G2 (Homo sapiens, UniProt O14791, DEL388-389)', '=', 2000),
  ('CC(COc1ccc2c(c1)CCC(=O)N2C)N1CCC2(CC1)C(=O)Nc1ccc(C#N)cc12 (single isomer, unassigned) [Compound 203]', 'APOL1 G2 (Homo sapiens, UniProt O14791, DEL388-389)', '=', 1190),
  ('CN1CCc2cc(OCCN3CCC4(CC3)C(=O)Nc3ccc(Cl)cc34)ccc2S1(=O)=O [Compound 153]', 'APOL1 G2 (Homo sapiens, UniProt O14791, DEL388-389)', '=', 826),
  ('C[C@]1(O)C[C@@H](n2cnc3cc(OCCN4CCC5(CC4)C(=O)Nc4ccc(C#N)cc45)cc(C(F)F)c32)C1 [Compound 446]', 'APOL1 G2 (Homo sapiens, UniProt O14791, DEL388-389)', '=', 1180),
  ('CC(COc1ccc(S(C)(=O)=O)cc1)N1CCC2(CC1)C(=O)Nc1ccccc12 (stereo not drawn) [Compound 28]', 'APOL1 G2 (Homo sapiens, UniProt O14791, DEL388-389)', '<', 434),
  ('CS(=O)(=O)C1(c2ccc(OCCN3CCC4(CC3)C(=O)N(CC(F)(F)F)c3ccc(C#N)cc34)cc2)COC1 [Compound 184]', 'APOL1 G2 (Homo sapiens, UniProt O14791, DEL388-389)', '=', 1280),
  ('CC(COc1ccc(S(C)(=O)=O)cc1)N1CCC2(CC1)C(=O)N(C1CC(O)C1)c1ccc(Cl)cc12 (mixture of isomers) [Compound 205]', 'APOL1 G2 (Homo sapiens, UniProt O14791, DEL388-389)', '=', 1220),
  ('CC(C)(O)c1ncc(OCCN2CCC3(CC2)C(=O)Nc2ccc(C#N)cc23)cc1C(F)(F)F [Compound 411]', 'APOL1 G2 (Homo sapiens, UniProt O14791, DEL388-389)', '=', 436),
  ('Cn1c(=O)oc2cc(OCCN3CCC4(CC3)C(=O)Nc3ccc(Cl)cc34)ccc21 [Compound 131]', 'APOL1 G2 (Homo sapiens, UniProt O14791, DEL388-389)', '=', 464),
  ('CC(=O)N1CCc2cc(OCCN3CCC4(CC3)C(=O)Nc3ccc(Cl)cc34)ccc2C1 [Compound 194]', 'APOL1 G2 (Homo sapiens, UniProt O14791, DEL388-389)', '=', 600),
  ('CN1C(=O)C2(CCN(CCOc3cc(F)c(C4(S(C)(=O)=O)COC4)c(F)c3)CC2)c2cc(C#N)ccc21 [Compound 189]', 'APOL1 G2 (Homo sapiens, UniProt O14791, DEL388-389)', '=', 349);
